- Species on record: Homo sapiens
- Experiment Description: Selectivity ratio of Ki for human recombinant CB1 receptor to KI for human recombinant CB2 receptor
Mark Met only for Ratio Ki values smaller than 7; exact matches and larger values are Not met.

Worked set:
CCC1COc2cccc3c(=O)c(C(=O)NC45CC6CC(CC(C6)C4)C5)cn1c23 (racemic) : Not met
O=C(NC1CCCCCC1)c1cn2c3c(cccc3c1=O)OCC2C1CC1 (racemic) : Not met
CC(C)[C@@H]1COc2cccc3c(=O)c(C(=O)NC45CC6CC(CC(C6)C4)C5)cn1c23 : Not met

Could you now look at the following compound, please?
Please check: Ratio Ki for CCC1COc2cccc3c(=O)c(C(=O)Nc4nccs4)cn1c23 (racemic) , strictly under 7 or not? Met
